tested on: Vero E6 infected with SARS-CoV-2; assay: inhibition of SARS-CoV-2 cytopathic effect; higher = more antiviral protection, active = above 15; settings: 1 nM; 48 h
Please provide measured inhibition of SARS-CoV-2 cytopathic effect for the entries that follow.
Reply with just the number (in %).

inhibition of SARS-CoV-2 cytopathic effect on Vero E6 infected with SARS-CoV-2 for COc1cc(N2CCC(N3CCN(C)CC3)CC2)ccc1Nc1ncc(Cl)c(Nc2ccccc2P(C)(C)=O)n1 [brigatinib] is 0.45

inhibition of SARS-CoV-2 cytopathic effect on Vero E6 infected with SARS-CoV-2 for O=C(/C=C/c1ccc(O)c(O)c1)O[C@@H]1C[C@](O)(C(=O)O)C[C@@H](O)[C@H]1O [chlorogenic-acid] is -0.66

inhibition of SARS-CoV-2 cytopathic effect on Vero E6 infected with SARS-CoV-2 for `CN(CCc1ccc(Cl)c(Cl)c1)CCN1CCCC1` is -1.5

inhibition of SARS-CoV-2 cytopathic effect on Vero E6 infected with SARS-CoV-2 for Nc1nccc(Oc2ccc(NC(=O)c3c[nH]cc(-c4ccc(F)cc4)c3=O)cc2F)c1Cl [metatinib] is 0.06

inhibition of SARS-CoV-2 cytopathic effect on Vero E6 infected with SARS-CoV-2 for C[C@]12CC[C@H](O)C[C@H]1CC[C@@H]1[C@@H]2CC[C@]2(C)[C@@](O)(c3ccoc3)CC[C@]12O [rostafuroxine] is 3.43

inhibition of SARS-CoV-2 cytopathic effect on Vero E6 infected with SARS-CoV-2 for `CC[C@H]1OC(=O)C[C@@H](O)[C@H](C)[C@@H](O[C@@H]2O[C@H](C)[C@@H](O[C@H]3C[C@@](C)(O)[C@@H](O)[C@H](C)O3)[C@H](N(C)C)[C@H]2O)[C@@H](CC=O)C[C@@H](C)C(=O)/C=C/C(C)=C/[C@@H]1CO[C@@H]1O[C@H](C)[C@@H](O)[C@@H](OC)[C@H]1OC` is -4.49

inhibition of SARS-CoV-2 cytopathic effect on Vero E6 infected with SARS-CoV-2 for `O=[N+]([O-])c1cc(Cl)ccc1S(=O)(=O)N1CCN(Cc2ccccc2)CC1` is 2.15

inhibition of SARS-CoV-2 cytopathic effect on Vero E6 infected with SARS-CoV-2 for NC(=O)c1nc(F)cnc1O [favipiravir] is -4.88
